# TARGET SYSTEM: human PD-1 / PD-L1-Ig binding on Jurkat cell line over-expressing human PD-1 (Jurkat-PD-1) (Homo sapiens, UniProt Q15116)
# Construct: expressed in transfected cells; host or cells: Jurkat
# Sequence (Q15116 25-288): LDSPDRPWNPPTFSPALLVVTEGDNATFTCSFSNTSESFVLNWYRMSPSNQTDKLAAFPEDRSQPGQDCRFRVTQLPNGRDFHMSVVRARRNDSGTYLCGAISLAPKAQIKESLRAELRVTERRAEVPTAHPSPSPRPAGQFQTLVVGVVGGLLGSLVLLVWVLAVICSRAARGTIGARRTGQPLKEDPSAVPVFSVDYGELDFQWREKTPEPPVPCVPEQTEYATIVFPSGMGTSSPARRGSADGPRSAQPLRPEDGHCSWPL
# TEST NAME: Jurkat-PD-1 Cell Binding High-Content Screening Assay (CBA)
# Type: cell-based
# COND: Jurkat-PD-1 cells, PE-labeled PD-L1-Ig 20 nM final; read-out: Jurkat HPD1_PDL1 IC50
Recorded IC50 by entry
Please reply with the bare figure in nM and do not write the unit itself.

1) Cc1cccc(C[C@@H]2NC(=O)[C@H](CC(=O)O)NC(=O)[C@H](Cc3ccc(C(=O)O)cc3)NC(=O)[C@H](CN)NC(=O)CSC[C@@H](C(=O)N[C@@H](C)C(N)=O)NC(=O)[C@H]([C@@H](C)O)NC(=O)[C@H](C(C)C)NC(=O)[C@H](CC3CCCCC3)NC(=O)[C@H](CCN)NC(=O)[C@@H](CC(C)C)NC(=O)[C@H](CCCN)NC(=O)[C@H](C(C)C)NC(=O)[C@H](Cc3ccc(-c4ccccc4)cc3)NC(=O)[C@H](C(C)C)NC2=O)c1    8.9

# lookup: IC50 of CC(C)C[C@H]1NC(=O)[C@H](CCCN)NC(=O)[C@H](C(C)C)NC(=O)[C@H](Cc2ccc(-c3ccccc3)cc2)NC(=O)[C@H](C(C)C)NC(=O)[C@H](Cc2cccc(C(F)(F)F)c2)NC(=O)[C@H](CC(=O)O)NC(=O)[C@H](Cc2ccc(OCC(=O)O)cc2)NC(=O)[C@H](Cc2ccncc2)NC(=O)CSC[C@@H](C(=O)N[C@@H](C)C(N)=O)NC(=O)[C@H]([C@@H](C)O)NC(=O)[C@H](C(C)C)NC(=O)[C@H](CC2CCCCC2)NC(=O)[C@H](CCN)NC1=O
12.1

###

# TARGET SYSTEM: human PD-1 / PD-L1-Ig binding on Jurkat cell line over-expressing human PD-1 (Jurkat-PD-1) (Homo sapiens)
# Construct: expressed in transfected cells; host or cells: Jurkat
# TEST NAME: Jurkat-PD-1 Cell Binding High-Content Screening Assay (CBA)
# Type: cell-based
# COND: Jurkat-PD-1 cells, PE-labeled PD-L1-Ig 20 nM final; read-out: Jurkat HPD1_PDL1 IC50
QUANTITY MEASURED: IC50 (nM)
Please reply with the bare figure in nM and do not write the unit itself.

# lookup: IC50 of CC(C)C[C@H]1NC(=O)[C@H](CCCN)NC(=O)[C@H](CCC(=O)O)NC(=O)[C@H](Cc2ccc(-c3ccccc3)cc2)NC(=O)[C@H](C(C)C)NC(=O)[C@H](Cc2ccc(Cl)c(Cl)c2)NC(=O)[C@H](CC(=O)O)NC(=O)[C@H](Cc2ccc(OCC(=O)O)cc2)NC(=O)[C@H](CN)NC(=O)CSC[C@@H](C(=O)N[C@@H](C)C(N)=O)NC(=O)[C@H]([C@@H](C)O)NC(=O)[C@H](C(C)C)NC(=O)[C@H](CC2CCCCC2)NC(=O)[C@H](CCN)NC1=O
11.1

###

# TARGET SYSTEM: human PD-1 / PD-L1-Ig binding on Jurkat cell line over-expressing human PD-1 (Jurkat-PD-1) (Homo sapiens, UniProt Q15116)
# Construct: expressed in transfected cells; host or cells: Jurkat
# TEST NAME: Jurkat-PD-1 Cell Binding High-Content Screening Assay (CBA)
# Assay type: cell-based
# COND: Jurkat-PD-1 cells, PE-labeled PD-L1-Ig 20 nM final; read-out: Jurkat HPD1_PDL1 IC50
Where a SMILES comes first, the peptide text is derived from it. Bridges are numbered along the chain shown (N, C = ends). [ ]: non-standard residue; d: D form. Bip = N[C@@H](Cc1ccc(-c2ccccc2)cc1)C(=O)O; Orn = NCCC[C@H](N)C(=O)O
Recorded pIC50 by entry
In textbook form, pIC50 equals minus log to base ten of the concentration in mol/L.

1. CC[C@H](C)[C@@H]1NC(=O)[C@H](Cc2ccc(-c3ccccc3)cc2)NC(=O)[C@H](C(C)C)NC(=O)[C@H](Cc2c[nH]c3ccccc23)NC(=O)[C@H](CC(=O)O)NC(=O)[C@H](Cc2ccc(O)cc2)NC(=O)[C@H](CC(N)=O)NC(=O)CSC[C@@H](C(=O)NCC(N)=O)NC(=O)[C@H]([C@@H](C)O)NC(=O)[C@H](C(C)C)NC(=O)[C@H](CC(C)C)NC(=O)[C@H](CCCCN)NC(=O)[C@@H](CC(C)C)NC(=O)[C@H](CCCN)NC1=O [Compound 1131] ({CH2CO}-NYDWV[Bip]I[Orn][dL]KLVTCG-NH2; thioether N-14)    7.61

Next up:
# lookup: pIC50 of CCC(C)[C@@H]1NC(=O)[C@H](Cc2ccc(-c3ccccc3)cc2)NC(=O)[C@H](C(C)C)NC(=O)[C@H](Cc2cccc(C)c2F)NC(=O)[C@H](CC(=O)O)NC(=O)[C@H](Cc2ccc(OCC(=O)O)cc2)NC(=O)[C@H](CN)NC(=O)CSC[C@@H](C(=O)N[C@@H](C)C(N)=O)NC(=O)[C@H]([C@@H](C)O)NC(=O)[C@H](C(C)C)NC(=O)[C@H](CC2CCCCC2)NC(=O)[C@H](CCN)NC(=O)[C@@H](CC(C)C)NC(=O)[C@H](CCCN)NC1=O (some centres unmarked)
7.79

###

Recorded IC50 by entry
# TARGET SYSTEM: human PD-1 / PD-L1-Ig binding on Jurkat cell line over-expressing human PD-1 (Jurkat-PD-1) (Homo sapiens)
# Construct: expressed in transfected cells; host or cells: Jurkat
# TEST NAME: Jurkat-PD-1 Cell Binding High-Content Screening Assay (CBA)
# Format: cell-based
# COND: Jurkat-PD-1 cells, PE-labeled PD-L1-Ig 20 nM final; read-out: Jurkat HPD1_PDL1 IC50
Where a SMILES comes first, the peptide text is derived from it. Bridges are numbered along the chain shown (N, C = ends). [ ]: non-standard residue; d: D form. ξ: configuration not given here. Bip = N[C@@H](Cc1ccc(-c2ccccc2)cc1)C(=O)O; ξW = NC(Cc1c[nH]c2ccccc12)C(=O)O; Dab = NCC[C@H](N)C(=O)O; Dap = NC[C@H](N)C(=O)O

1. CC(C)C[C@@H]1NC(=O)[C@H](Cc2c[nH]c3ccccc23)NC(=O)[C@H](CC(=O)O)NC(=O)[C@H](Cc2ccc(O)cc2)NC(=O)[C@H](Cc2ccccc2)NC(=O)CSC[C@@H](C(=O)NCC(N)=O)NC(=O)[C@H](CO)NC(=O)[C@H](C(C)C)NC(=O)[C@H](CC(C)C)NC(=O)[C@H](CC(N)=O)NC(=O)[C@@H](CC(C)C)NC(=O)[C@H](CCN)NC(=O)[C@H](C(C)C)NC(=O)[C@H](Cc2ccc(-c3ccccc3)cc2)NC1=O [Compound 1059] ({CH2CO}-FYDWL[Bip]V[Dab][dL]NLVSCG-NH2; thioether N-14)    28.5 nM

# lookup: IC50 of CC(C)C[C@@H]1NC(=O)C(Cc2c[nH]c3ccccc23)NC(=O)[C@H](CC(=O)O)NC(=O)[C@H](Cc2ccc(O)cc2)NC(=O)[C@H](Cc2ccccc2)NC(=O)CSC[C@@H](C(=O)N[C@@H](C)C(N)=O)NC(=O)[C@H]([C@@H](C)O)NC(=O)[C@H](C(C)C)NC(=O)[C@H](CC(C)C)NC(=O)[C@H](CC(N)=O)NC(=O)[C@@H](CC(C)C)NC(=O)[C@H](CN)NC(=O)[C@H](C(C)C)NC(=O)[C@H](Cc2ccc(-c3ccccc3)cc2)NC1=O (stereo partly drawn) [Compound 1213] ({CH2CO}-FYD[ξW]L[Bip]V[Dap][dL]NLVTCA-NH2; thioether N-14)
20.8 nM

###

# TARGET SYSTEM: human PD-1 / PD-L1-Ig binding on Jurkat cell line over-expressing human PD-1 (Jurkat-PD-1) (Homo sapiens)
# Construct: expressed in transfected cells; host or cells: Jurkat
# TEST NAME: Jurkat-PD-1 Cell Binding High-Content Screening Assay (CBA)
# Type: cell-based
# COND: Jurkat-PD-1 cells, PE-labeled PD-L1-Ig 20 nM final; read-out: Jurkat HPD1_PDL1 IC50
Where a SMILES comes first, the peptide text is derived from it. Bridges are numbered along the chain shown (N, C = ends). [ ]: non-standard residue; d: D form. The star is where a group is joined. Bip = N[C@@H](Cc1ccc(-c2ccccc2)cc1)C(=O)O; Carboxymethyl = O=C(O)C*; Orn = NCCC[C@H](N)C(=O)O; Dap = NC[C@H](N)C(=O)O
Recorded IC50 by entry
Please reply with the bare figure in nM and do not write the unit itself.

For orientation, consider the following solved cases.
1) COc1cccc(C[C@@H]2NC(=O)[C@H](CC(=O)O)NC(=O)[C@H](Cc3ccc(OCC(=O)O)cc3)NC(=O)[C@H](Cc3cccnc3)NC(=O)CSC[C@@H](C(=O)N[C@@H](C)C(N)=O)NC(=O)[C@H]([C@@H](C)O)NC(=O)[C@H](C(C)C)NC(=O)[C@H](CC3CCCCC3)NC(=O)[C@H](CCN)NC(=O)[C@@H](CC(C)C)NC(=O)[C@H](CCCN)NC(=O)[C@H](CCC(=O)O)NC(=O)[C@H](Cc3ccc(-c4ccccc4)cc3)NC(=O)[C@H](C(C)C)NC2=O)c1    17.8
2) CC(C)C[C@@H]1NC(=O)[C@H](CC(N)=O)NC(=O)[C@@H](CC(C)C)NC(=O)[C@H](CN)NC(=O)[C@H](C(C)C)NC(=O)[C@H](Cc2ccc(-c3ccccc3)cc2)NC(=O)[C@H](C(C)C)NC(=O)[C@H](Cc2c[nH]c3ccccc23)NC(=O)[C@H](CC(=O)O)NC(=O)[C@H](Cc2ccc(OCC(=O)O)cc2)NC(=O)[C@H](CN)NC(=O)CSC[C@@H](C(=O)NCC(N)=O)NC(=O)[C@H](CO)NC(=O)[C@H](C(C)C)NC1=O [Compound 1289] ({CH2CO}-[Dap]Y(Carboxymethyl)DWV[Bip]V[Dap][dL]NLVSCG-NH2; thioether N-14)    11
3) CC(C)C[C@@H]1NC(=O)[C@H](CCCCN)NC(=O)[C@@H](CC(C)C)NC(=O)[C@H](CCCN)NC(=O)[C@H](Cc2cnc[nH]2)NC(=O)[C@H](Cc2ccc(-c3ccccc3)cc2)NC(=O)[C@H](C(C)C)NC(=O)[C@H](Cc2c[nH]c3ccccc23)NC(=O)[C@H](CC(=O)O)NC(=O)[C@H](Cc2ccc(O)cc2)NC(=O)[C@H](CC(N)=O)NC(=O)CSC[C@@H](C(=O)N[C@@H](C)C(N)=O)NC(=O)[C@H](CO)NC(=O)[C@H](C(C)C)NC1=O [Compound 1134] ({CH2CO}-NYDWV[Bip]H[Orn][dL]KLVSCA-NH2; thioether N-14)    32.1

# lookup: IC50 of CC(C)C[C@H]1NC(=O)[C@H](CCCN)NC(=O)[C@H](CCCNC(N)=O)NC(=O)[C@H](Cc2ccc(-c3ccccc3)cc2)NC(=O)[C@H](C(C)C)NC(=O)[C@H](Cc2c[nH]c3ccccc23)NC(=O)[C@H](CC(=O)O)NC(=O)[C@H](Cc2ccc3ccncc3c2)NC(=O)[C@H](CN)NC(=O)CSC[C@@H](C(=O)N[C@@H](C)C(N)=O)NC(=O)[C@H]([C@@H](C)O)NC(=O)[C@H](C(C)C)NC(=O)[C@H](CC2CCCCC2)NC(=O)[C@H](CCN)NC1=O
18.7
